tested on: HOP-92 NSCLC; experiment: NCI-60 one-dose screen, 48 h (100 = growth as untreated, 0 = no growth, -100 = all killed); conditions: 10 µM unless noted
The panel holds about 83,000 compounds, 20% with a hit somewhere; the sample as a whole holds those more often.
Each record here notes measured growth.
observation.type: growth (%)

{"molecule": "Nc1nc(N)c2c(n1)NC(c1ccc(Cl)cc1)CC(c1cccc(Nc3ccncc3)c1)=N2 (centres undefined)", "observation.type": "growth", "endpoint.value": 48.5}
{"molecule": "COc1ccc(S(=O)(=O)Nc2cc(Sc3cccc4cccnc34)c(O)c3ccccc23)cc1", "observation.type": "growth", "endpoint.value": 38.9}
{"molecule": "CC1(C)C(N)=Nc2cc(OCCCN3Cc4ccc(OCCc5cn(CC(=O)N6CCC(CCN7CCCC7)CC6)nn5)cc4C3)c(OCC3CC3)cc21", "observation.type": "growth", "endpoint.value": 81.3}
{"molecule": "O=C(Nc1ccc(F)cc1)c1cc2cc(Nc3nc(-c4ccccc4)nc4ccccc34)ccc2oc1=O", "observation.type": "growth", "endpoint.value": 103}

----------
Each record here notes measured growth.
System: HOP-62 NSCLC
Assay: NCI-60 one-dose screen, 48 h (100 = growth as untreated, 0 = no growth, -100 = all killed)
Conditions: 10 µM unless noted
Description: Growth inhibition of the HOP-62 human Non-Small Cell Lung tumor cell line is measured as a screen for anti-cancer activity. Cells are grown in 96 well plates and exposed to the test compound for 48 hours. Compounds are tested at a single concentration, which is 10^-5 M for most compounds. The reported endpoint is percent growth (GI% or GIPRCNT), where numbers from 0 - 100% represent growth inhibition, and numbers from -100% - 0 represent cell death. […]
The panel holds about 83,000 compounds, 20% with a hit somewhere; the sample as a whole holds those more often.

{"molecule": "O=C1C(N2CCOCC2)=C(I)C(=O)c2ncccc21", "growth, %": 55.8}
{"molecule": "Cc1ccc(-c2nc3nc(-c4ccc(Cl)cc4)nc(N4CCCNCC4)c3o2)cc1", "growth, %": 97.6}
{"molecule": "CN(C)C(=O)c1cc2cnc(Nc3ccc(-c4csc5c(=S)cc(N6CCOCC6)oc45)cc3)nc2n1C1CCCC1", "growth, %": 6.1}
{"molecule": "O=c1cc(N/N=C/c2ccc(F)cc2)c2cc(Cl)ccc2[nH]1", "growth, %": 95}
{"molecule": "Brc1ccc(/C=C(/C2=NCCN2)n2ccc3ccccc32)cc1", "growth, %": 68.3}
{"molecule": "COc1ccc2c(c1)CC[C@@H]1[C@@H]2CC[C@]2(C)C3C(=CCC4C(=O)N(c5ccccc5)C(=O)C43)C[C@@H]12 (some centres undefined)", "growth, %": 90.3}
{"molecule": "C=C1CCC2C3(C)COC(c4ccc(NC(C)=O)cc4)OC3CCC2(C)C1C/C=C1/C(=O)OCC1O (centres undefined)", "growth, %": 85.5}
{"molecule": "Cc1ccc(NC(=O)N/C(N)=N/c2nc(=O)c3ccccc3s2)cc1", "growth, %": 91.7}
{"molecule": "O=C1CCc2c(sc3[nH]c(=S)n(Cc4ccc(Cl)cc4)c(=O)c23)C1", "growth, %": -11.5}

----------
test system: HT29 colon; test: NCI-60 one-dose screen, 48 h (100 = growth as untreated, 0 = no growth, -100 = all killed); conditions: 10 µM unless noted
Compounds without any hit were thinned out: in the full panel of roughly 83,000, 20% have a hit. Calls of active or inactive are those of the source. How the source made its calls: active means growth percent below 10; inactive means the rest.
Each record here notes measured growth.

{"molecule": "C=C1CC[C@@H]2[C@](C)(COC(C)=O)[C@H](OC(C)=O)CC[C@@]2(C)[C@@H]1CC(Nc1ccc(S(=O)(=O)Nc2nccs2)cc1)C1=CCOC1=O (some centres undefined)", "growth": "-42.7% (active)"}
{"molecule": "Cc1oc2c(Cc3ccc(NC(=O)c4ccc(Cl)cc4)cc3)ncnc2c1C(=O)NO", "growth": "89.6% (inactive)"}
{"molecule": "CC1=C2[C@@H](CC1)[C@]1(C)O[C@@](C3CC3)(C[C@H]1OC(=O)CO)[C@H]2OC(=O)/C=C/c1ccccc1", "growth": "89.5% (inactive)"}
{"molecule": "COC(=O)[C@H]1Cc2c([nH]c3ccccc23)[C@@H](c2cccs2)N1", "growth": "97.1% (inactive)"}
{"molecule": "C#CCOc1cccc(Nc2ncc3ncn(C4CCN(C(=O)CCl)C4)c3n2)c1 (centres undefined)", "growth": "23.4% [6.25 µM] (inactive)"}
{"molecule": "Cc1nc2sc(C(=O)Nc3cccc4ncccc34)c(N)c2cc1C(C)O (centres undefined)", "growth": "52.8% (inactive)"}
{"molecule": "COc1ccc(-c2csc(NC(=O)CN3CCN(CCO)CC3)n2)cc1NS(=O)(=O)c1cccc2c(N(C)C)cccc12", "growth": "20.1% (inactive)"}
{"molecule": "COCCn1cc(-c2nc(-c3cn(CCOC)c4ncccc34)cs2)c2ccccc21", "growth": "89.5% (inactive)"}
{"molecule": "CC[C@]12CN3CCc4c([nH]c5ccccc45)[C@@](C(=O)OC)(c4cc5c(cc4OC)N(C)[C@H]4[C@@](O)(C(=O)OC)[C@H](OC(C)=O)[C@]6(CC)C=CCN7CC[C@]54[C@@H]76)CC(C3)[C@H]1O2 (some centres undefined)", "growth": "2.74% (active)"}

----------
test system: OVCAR-8 ovarian; assay: NCI-60 one-dose screen, 48 h; details: 10 µM unless noted
About 83,000 compounds went through this panel and 20% of them were active in at least one assay; those are over-represented in the sample as a whole. Activity calls are given as the source filed them. How the source made its calls: active means growth percent below 10; inactive means the rest.
Classes used: active, inactive

{"compound": "Cc1ccc(NC(=O)c2sc3nc(C)c(C(=O)c4ccccc4)cc3c2N)cc1", "target.or.test.system": "OVCAR-8 ovarian", "cat": "inactive"}
{"compound": "Clc1ccc2c(c1)N(c1ncnc3ccc(-c4cnc5[nH]ccc5c4)cc13)CC2", "target.or.test.system": "OVCAR-8 ovarian", "cat": "inactive"}
{"compound": "COC(=O)/C=C1/SC(=Nc2ccc([N+](=O)[O-])cc2)N(CCc2c[nH]c3ccccc23)C1=O", "target.or.test.system": "OVCAR-8 ovarian", "cat": "inactive"}
{"compound": "C=CCOc1ccc(/C=C2\\SC(=S)N(CCc3ccc(O)cc3)C2=O)cc1", "target.or.test.system": "OVCAR-8 ovarian", "cat": "inactive"}
{"compound": "COC(=O)[C@H]1Cc2c([nH]c3ccccc23)[C@@H](c2cccs2)N1", "target.or.test.system": "OVCAR-8 ovarian", "cat": "inactive"}
{"compound": "O=C(Cn1cc(CN2CCN(c3ccnc4cc(Cl)ccc34)CC2)nn1)Nc1cccc([N+](=O)[O-])c1", "target.or.test.system": "OVCAR-8 ovarian", "cat": "inactive"}
{"compound": "C[C@@H]1CC[C@@H]2[C@@H]1[C@H](OC(=O)/C=C/c1ccccc1)[C@]1(c3ccccc3)C[C@@H](NC(=O)CO)[C@@]2(C)O1", "target.or.test.system": "OVCAR-8 ovarian", "cat": "inactive"}
{"compound": "Nc1ccc(-c2nc3ccc4[nH]ncc4c3c3c2CCCC3)cc1F", "target.or.test.system": "OVCAR-8 ovarian", "cat": "inactive"}
{"compound": "S=c1nc(CS)[nH]c2ccccc12", "target.or.test.system": "OVCAR-8 ovarian", "cat": "inactive"}
{"compound": "CCCCCCCCCCCCCCCC(=O)O[C@@H]1[C@@H](O)[C@@H](O)C([C@H](NC(=O)[C@@H]2C[C@@H](CCC)CN2C)[C@H](C)Cl)O[C@@H]1SC (stereo partly drawn)", "target.or.test.system": "OVCAR-8 ovarian", "cat": "inactive"}
{"compound": "O=C(NCCCN1CCCCC1)c1ccc(-c2nc3ccc4[nH]ncc4c3c3c2CCCC3)cc1", "target.or.test.system": "OVCAR-8 ovarian", "cat": "inactive"}
{"compound": "Cc1cnc(C(=O)NNc2nc3sc4c(c3c(=O)[nH]2)C(C)CCC4)cn1 (stereo not drawn)", "target.or.test.system": "OVCAR-8 ovarian", "cat": "inactive"}
{"compound": "CCN1CCN(C(=O)[C@]23CC[C@@H](C)[C@H](C)[C@@H]2C2=CC[C@@H]4[C@@]5(C)CCC(=O)C(C)(C)[C@@H]5CC[C@@]4(C)[C@]2(C)CC3)CC1", "target.or.test.system": "OVCAR-8 ovarian", "cat": "inactive"}
{"compound": "CC(Sc1ccccc1)C(=O)O (stereo not drawn)", "target.or.test.system": "OVCAR-8 ovarian", "cat": "inactive"}
{"compound": "COc1cc(/C=C2\\CCC/C(=C\\c3cc(CN4CCCC4)c(O)c(OC)c3)C2=O)cc(CN2CCCC2)c1O", "target.or.test.system": "OVCAR-8 ovarian", "cat": "active"}
{"compound": "CC(=O)OC[C@]12CCC(C)(C)C=C1[C@H]1CC[C@@H]3[C@@]4(C)CCCNC(C)(C)[C@@H]4CC[C@@]3(C)[C@]1(C)CC2", "target.or.test.system": "OVCAR-8 ovarian", "cat": "inactive"}
{"compound": "Nc1n[nH]c2cccc(C#Cc3cccc(C(=O)Nc4ccc(CN5CCOCC5)c(C(F)(F)F)c4)c3)c12", "target.or.test.system": "OVCAR-8 ovarian", "cat": "inactive"}
{"compound": "CCN(CC)/C([O-])=c1\\cccc\\c1=C1\\N=C(c2ccccc2)N=C1[n+]1ccc(-c2ccccc2)cc1", "target.or.test.system": "OVCAR-8 ovarian", "cat": "inactive"}
